Test name: NCI Yeast Anticancer Drug Screen. Data for the bub3 strain (AID 167)
Stated conditions: S. cerevisiae bub3 mutant strain, at 50.0 µM, stronger effect = higher value
About 79,000 compounds went through this panel and 15% of them were active in at least one assay; those are over-represented in the sample as a whole.
Quantity: growth inhibition (%)
Write the answer as a number in %, unit excluded.

Sample answers from the record:
CCOP(=O)(OCC)/C(C#N)=C/c1cnc(-c2ccccc2)[nH]1    13.4
Cc1cccc(C[N+](C)(C)CCO)c1C    3.45
O=C1C2=C(Nc3cc(Cl)ccc3N2)OC1c1c[nH]c2ccc(COc3ccccc3)cc12 (stereo not given)    -15

From here, focus on the item given below.
growth inhibition reported for this compound `CC(=O)CCCCO` : 2.8

====

Test name: NCI Yeast Anticancer Drug Screen. Data for the rad50 strain (AID 155);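 also: 0% = growth of vehicle-only cultures of the same strain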
Stated conditions: S. cerevisiae rad50 strain growth inhibition; at 50.0 µM; stronger effect = higher value
About 79,000 compounds went through this panel and 15% of them were active in at least one assay; those are over-represented in the sample as a whole.
Quantity: growth inhibition (%)
Write the answer as a number in %, unit excluded.

Sample answers from the record:
CC(=O)NC1CCC(Cc2ccccc2)CC1 (configuration not stated)    6.2
NNc1nc2ccccc2c(=O)n1NC(=O)C(=O)Nc1cccc(C(F)(F)F)c1    -0.35
CC(C(=O)O)n1c(=O)ssc1=O (configuration not stated)    1.95
CCOC(=O)C(Nc1cc([N+](=O)[O-])ccc1C(=O)N1CCCCC1)(C(=O)OCC)N1CCCCC1    4.6

From here, focus on the item given below.
growth inhibition reported for this compound CC1(C)Oc2ccc3c(=O)c(-c4ccccc4)c(-c4ccccc4)oc3c2C1C(=O)O (configuration not stated) : 12.5

====

Test name: NCI Yeast Anticancer Drug Screen. Data for the cln2 rad14 strain (AID 165);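 also: 0% = growth equal to vehicle treated cultures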
Stated conditions: S. cerevisiae cln2 rad14 strain, at 50.0 µM, stronger effect = higher value
About 79,000 compounds went through this panel and 15% of them were active in at least one assay; those are over-represented in the sample as a whole.
Examples of compounds with documented growth inhibition follow.
Write the answer as a number in %, unit excluded.

Sample answers from the record:
CN(C)CCCNC(=O)CCNC(=O)c1cc(NC(=O)c2cc(NC(=O)c3cc(NC(=O)c4nc(NC(=O)CCCNC(=O)c5cc(NC(=O)c6cc(NC(=O)c7cc(NC(=O)c8nccn8C)cn7C)cn6C)cn5C)cn4C)cn3C)cn2C)cn1C    28.8
CCN(CC)CCOC(=O)c1ccc(NC(=O)OCCC(C)OC(=O)Nc2ccc(C(=O)OCCN(CC)CC)cc2)cc1 (configuration not stated)    -4.4
O=C(O)C1CCCCN1/N=C/c1cccc([N+](=O)[O-])c1 (configuration not stated)    1.3
CC(C)OCCOCCO    -24.9
Nc1ccc(Cl)c(S(=O)(=O)O)c1    8.4
CCOc1nc(N)nc(C)c1N=Nc1ccc(O)cc1    -43
C=CCN(C)C(=O)CCCCCCCC1C(CCCCCCCC)C2(Cl)C(Cl)=C(Cl)C1(Cl)C2(Cl)Cl (configuration not stated)    -20.5
CCCCCC(C)(O)CCC (configuration not stated)    -3.45
Cc1ccccc1C=O    -3.35
O=C(O)/C(=C\c1ccncc1)c1cccc2ccccc12    -24.9

growth inhibition reported for this compound `O=C1c2ccccc2CN1c1ccccc1` : 6.45

growth inhibition reported for this compound COc1cc2c(cc1OC)C1c3cc(OC)c(OC)cc3CC(=O)N1CC2 (configuration not stated) : 19.3
